Ref: patent US11186577B2

- Tested on: MDR1 (P-glycoprotein)
- assay-text: MDR1-MDCK effective efflux assay (Transwell, 10 μM, 1 hour), MDR1-MDCK cells
- Format: in vitro ADME
- condition-info: dog, MDCK-MDR1, pH 7.4, Papp AB MDR1
Measured Papp A→B at 1 h, 10 μM accompanies every entry in the list below.

Answered cases to consult:
O=C(C1CCC1)N1Cc2cc(Cl)ccc2-n2c(nnc2C2CC3(C2)CN(c2ccc(F)cn2)C3)C1: < 7 ×10⁻⁶ cm/s
CN1Cc2cc(Cl)ccc2-n2c(nnc2C2CC3(C2)CN(c2cccc(F)n2)C3)C1: > 20 ×10⁻⁶ cm/s
COC(=O)N1Cc2cc(Cl)ccc2-n2c(C3CC4(C3)CN(c3ncccn3)C4)nnc2C1C (stereo not shown): < 7 ×10⁻⁶ cm/s

Next molecule, please.
Q: Fill in the blank: the reported Papp A→B at 1 h, 10 μM of CC1c2nnc(C3CC4(C3)CN(c3ccc(F)cn3)C4)n2-c2ccc(Cl)cc2CN1C(=O)C(F)F (stereo not shown) is ____.
Result: 7 to 10 ×10⁻⁶ cm/s

----------
- Test system: MDR1 (P-glycoprotein)
- assay-text: MDR1-MDCK effective efflux assay (Transwell, 10 μM, 1 hour), MDR1-MDCK cells
- Format: in vitro ADME
- condition-info: dog, MDCK-MDR1, pH 7.4, Papp AB MDR1
Below: a set of entries, each annotated with reported Papp A→B at 1 h, 10 μM.

Worked examples, 6 compounds total:
CC(=O)N1Cc2cc(Cl)ccc2-n2c(nnc2C2CC3(C2)CN(c2ccccn2)C3)C1: < 7 ×10⁻⁶ cm/s
CC1c2nnc(C3CC4(C3)CN(c3ccc(F)cn3)C4)n2-c2ccc(Cl)cc2CN1C(=O)OC(CF)CF (stereo not drawn): 10 to 20 ×10⁻⁶ cm/s
CC1c2nnc(C3CC4(C3)CN(c3ncccn3)C4)n2-c2ccc(Cl)cc2CN1C(=O)OC1CC1 (stereo not drawn): 10 to 20 ×10⁻⁶ cm/s
CCOC(=O)N1Cc2cc(Cl)ccc2-n2c(C3CC4(C3)CN(c3ncccn3)C4)nnc2C1C (stereo not drawn): 7 to 10 ×10⁻⁶ cm/s
CC1c2nnc(C3CC4(C3)CN(c3ncc(F)cn3)C4)n2-c2ccc(Cl)cc2CN1C(=O)OC1CC1 (stereo not drawn): > 20 ×10⁻⁶ cm/s
CN1Cc2cc(Cl)ccc2-n2c(nnc2C2CC3(C2)CN(C(=O)C2(F)CC2)C3)C1: < 7 ×10⁻⁶ cm/s

Q: Reported Papp A→B at 1 h, 10 μM for COC(=O)N1Cc2cc(Cl)ccc2-n2c(C3CC4(C3)CN(c3ccc(F)cn3)C4)nnc2C1C (stereo not drawn) : what is it?
Result: > 20 ×10⁻⁶ cm/s

Q: Please look up its Papp A→B at 1 h, 10 μM: `COC(=O)N1Cc2cc(Cl)ccc2-n2c(nnc2C2CC3(C2)CN(c2ncc(F)cn2)C3)C1`
Result: 7 to 10 ×10⁻⁶ cm/s

Q: Any idea what Papp A→B at 1 h, 10 μM was measured for `CC(=O)N1Cc2cc(Cl)ccc2-n2c(nnc2C2CC3(C2)CN(c2cnccn2)C3)C1` ?
Result: < 7 ×10⁻⁶ cm/s

----------
- tested-target: UniProtKB P47901
- assay-text: Vasopressin V1B receptor antagonist assay (AVP-evoked calcium, FLIPR, CHO-AVPR1b cells)
- Assay type: cell-based
- condition-info: in vitro antagonist assay, reference compounds
measurement-kind: IC50

Q: What value of measured IC50 is listed for CN1Cc2cc(Cl)ccc2-n2c(nnc2[C@H]2CC[C@H](Oc3ccccn3)CC2)C1 [balovaptan, reference compound] ?
Result: > 1000 nM
